Reported Kd by item:
Measurement Target: eOD-GT8 (monomeric ligand) (Human immunodeficiency virus 1, …)
Lab book: enter the figure in pM, no units written.

Solved entries:
{"Binder": "g28v2-D38-6_CLK19 (antibody, V domains shown) VH: QVQLVQSGAEVREPGASVKVSCKASGYTFTGYYMHWVRQAPGQGLEWMGWINPNRGGTNLARKLQDRVTMTRDTSLSTAYMELRRLRTDDTAVYYCARVGEKWTFDIWGQGTMVTVSS VL: DLQMTQSPSSLSASVGDRVTITCQASQDINNYLNWYQQKPGRAPKLLIYDTSNLETGVPSRFSGSGSGTDFTFTISSLQPEDIATYYCQQYAAFGPGTKVDIK", "Measurement Type": "Kd", "Unit": "pM", "Assay Value": 5380}
{"Binder": "GT8-D36-2_CLK09 (antibody, V domains shown) VH: QVQLVQSGAEVKKPGASVKVSCKASGYTFTGYYMNWVRQAPGQGLEWMGWINPNSGGTNYAQQFQGRVTMTRDTSISTAYMELSRLKSDDTAVYYCARVDGKKKTFDIWGQGTMVTVSS VL: DIQMTQSPSSLSASVGDRVTITCQASQDISNYLNWYQQKPGKAPKLLIYDVSNLETGVPSRFSGSGSGTAFTFTISSLQPEDIATYYCQQYEFFGGGTKVEIK", "Measurement Type": "Kd", "Unit": "pM", "Assay Value": 997}

// moving on: another record for Kd
Q: Param item = g28v2-D46-2_CLK19 (antibody, V domains shown) VH: QVQLLQSGDEVKKPGASVRVSCKASGYTFTAYFLHWVRQAPGQGLEWMGWINPHSGGTNYAQRFQDRVTMTRDTSISTAYMELSRLRSDDTAVYYCTPVLADYRWRFAYWGQGTLVTVSS VL: DIQMTQSPSSLSASVGDRVTITCQASQDINNYLNWYQQKPGKAPKLLIYDTTNLEIGVPSRFSGSGSGTDFTFTISSLQPEDFATYYCQQYAAFGPGTKVDIK ; retrieve measured Kd.
Ans: 344

Origin of measurements: paper PMC11488661
